Data origin, for the record: PubChem BioAssay AID1259407

- System: CCRIS mutagenicity, Ames/micronucleus/aberration tests
- PROTOCOL DETAILS: CCRIS mutagenicity studies
- COND: Test System: AMES SALMONELLA TYPHIMURIUM; Strain/Indicator: TA98; Metabolic Activation: RAT, LIVER, S-9, AROCLOR 1254
Activity calls are given as the source filed them. The rule behind the calls is not given here.
Reply using exactly one outcome from active, inactive

How was `O=[N+]([O-])c1ccc2c(c1)CCc1cc3c(cc1-2)CCc1ccccc1-3` classified in this test?
active

How was `COP(=S)(OC)Oc1nc(Cl)c(Cl)cc1Cl` classified in this test?
inactive

How was `Cc1cccc(Nc2cc(Cl)nc(SCC(=O)NCCO)n2)c1C` classified in this test?
inactive

How was `COP(=O)(OC)O/C(=C\Cl)c1cc(Cl)c(Cl)cc1Cl` classified in this test?
inactive

----------
- System: CCRIS mutagenicity, Ames/micronucleus/aberration tests
- PROTOCOL DETAILS: CCRIS mutagenicity studies
- COND: Test System: AMES SALMONELLA TYPHIMURIUM; Strain/Indicator: TA98; Metabolic Activation: HAMSTER, LIVER, S-9, AROCLOR 1254; Method: PREINCUBATION
Activity calls are given as the source filed them. How the calls were made is not given here.
Reply using exactly one outcome from YES for active, NO for inactive

These recorded examples may help you get a feel for the data.
{"COMPOUND": "CC1(C)COC1=O", "LABEL VALUE": "NO"}
{"COMPOUND": "Nc1ccc(NCCO)c([N+](=O)[O-])c1", "LABEL VALUE": "YES"}
{"COMPOUND": "c1cc(OCC2CO2)cc(OCC2CO2)c1 (stereo not given)", "LABEL VALUE": "NO"}

How was `C1CNCCN1` classified in this test?
NO

How was `ClC(Br)Br` classified in this test?
NO

----------
- Tested on: CCRIS mutagenicity, Ames/micronucleus/aberration tests
- PROTOCOL DETAILS: CCRIS mutagenicity studies
- COND: Test System: AMES SALMONELLA TYPHIMURIUM; Strain/Indicator: TA100; Metabolic Activation: NONE; Method: PREINCUBATION
Calls of active or inactive are those of the source. The rule behind the calls is not given here.
Reply using exactly one outcome from 1 (yes) = active, 0 (no) = inactive

These recorded examples may help you get a feel for the data.
{"COMPOUND": "Nc1ccccc1C(=O)OCCc1ccccc1", "LABEL VALUE": "0 (no)"}
{"COMPOUND": "Fc1c(F)c(F)c(Cl)c(F)c1F", "LABEL VALUE": "0 (no)"}
{"COMPOUND": "Nc1ccc2c(c1)CN1C(=O)c3ccccc3C1=N2", "LABEL VALUE": "1 (yes)"}
{"COMPOUND": "CCC(C)COC(=O)/C=C/c1ccc(N=Cc2ccc(OC)cc2)cc1 (configuration not stated)", "LABEL VALUE": "0 (no)"}
{"COMPOUND": "COc1ccc(C(=O)/C(Br)=C\\C(=O)O)cc1", "LABEL VALUE": "1 (yes)"}

How was `C1=C\CC/C=C\CC/1.C1=C\CC/C=C\CC/1.[Ni]` classified in this test?
0 (no)

How was `Clc1cccc(Cl)c1Cl` classified in this test?
0 (no)

----------
- Tested on: CCRIS mutagenicity, Ames/micronucleus/aberration tests
- PROTOCOL DETAILS: CCRIS mutagenicity studies
- COND: Test System: AMES SALMONELLA TYPHIMURIUM; Strain/Indicator: TA98; Metabolic Activation: NONE; Method: PREINCUBATION
The source made the active and inactive calls. How the calls were made is not given here.
Reply using exactly one outcome from 1 (yes) (active), 0 (no) (inactive)

These recorded examples may help you get a feel for the data.
{"RECORD SMILES": "N#CC(C#N)=Cc1ccc([N+](=O)[O-])o1", "LABEL VALUE": "1 (yes)"}
{"RECORD SMILES": "C[C@H]1COc2c(N3CCN(C)CC3)c(F)cc3c(=O)c(C(=O)O)cn1c23", "LABEL VALUE": "0 (no)"}
{"RECORD SMILES": "CCCCOCCOP(=O)(OCCOCCCC)OCCOCCCC", "LABEL VALUE": "0 (no)"}
{"RECORD SMILES": "C[C@H](CCC(=O)O)[C@H]1CC[C@H]2[C@@H]3CC[C@@H]4CC(=O)CC[C@]4(C)[C@H]3C[C@H](O)[C@]12C", "LABEL VALUE": "0 (no)"}
{"RECORD SMILES": "Oc1cccc(Nc2ccccc2)c1", "LABEL VALUE": "0 (no)"}
{"RECORD SMILES": "CCOS(=O)(=O)OCC", "LABEL VALUE": "1 (yes)"}

How was `CC1=CC[C@H]2C(C)=CC[C@@H](C(C)C)[C@@H]2C1` classified in this test?
0 (no)

How was `O[C@H]1[C@H]2O[C@H]2C=C[C@@H]1O` classified in this test?
0 (no)

How was `CCCNCCC` classified in this test?
0 (no)

How was `[O-][n+]1cc2ncccc2cn1` classified in this test?
0 (no)

How was `N#CCc1ccccc1` classified in this test?
0 (no)

How was `Oc1cccc2cccnc12` classified in this test?
0 (no)

How was `O=CC(=O)c1ccccc1` classified in this test?
0 (no)

How was `CN` classified in this test?
0 (no)
